molecular target: EGFr isolated from solubilised A431 cell membranes (Homo sapiens, UniProt P00533); construct: EGFr isolated from solubilised A431 cell membranes; endogenous in cells; host or cells: A431 cells (solubilised membranes); assay: Substrate phosphorylation assay, EGFr; type: biochemical; details: 30 minutes, room temperature, ATP and peptide at Km
Sequence (P00533 25-1210): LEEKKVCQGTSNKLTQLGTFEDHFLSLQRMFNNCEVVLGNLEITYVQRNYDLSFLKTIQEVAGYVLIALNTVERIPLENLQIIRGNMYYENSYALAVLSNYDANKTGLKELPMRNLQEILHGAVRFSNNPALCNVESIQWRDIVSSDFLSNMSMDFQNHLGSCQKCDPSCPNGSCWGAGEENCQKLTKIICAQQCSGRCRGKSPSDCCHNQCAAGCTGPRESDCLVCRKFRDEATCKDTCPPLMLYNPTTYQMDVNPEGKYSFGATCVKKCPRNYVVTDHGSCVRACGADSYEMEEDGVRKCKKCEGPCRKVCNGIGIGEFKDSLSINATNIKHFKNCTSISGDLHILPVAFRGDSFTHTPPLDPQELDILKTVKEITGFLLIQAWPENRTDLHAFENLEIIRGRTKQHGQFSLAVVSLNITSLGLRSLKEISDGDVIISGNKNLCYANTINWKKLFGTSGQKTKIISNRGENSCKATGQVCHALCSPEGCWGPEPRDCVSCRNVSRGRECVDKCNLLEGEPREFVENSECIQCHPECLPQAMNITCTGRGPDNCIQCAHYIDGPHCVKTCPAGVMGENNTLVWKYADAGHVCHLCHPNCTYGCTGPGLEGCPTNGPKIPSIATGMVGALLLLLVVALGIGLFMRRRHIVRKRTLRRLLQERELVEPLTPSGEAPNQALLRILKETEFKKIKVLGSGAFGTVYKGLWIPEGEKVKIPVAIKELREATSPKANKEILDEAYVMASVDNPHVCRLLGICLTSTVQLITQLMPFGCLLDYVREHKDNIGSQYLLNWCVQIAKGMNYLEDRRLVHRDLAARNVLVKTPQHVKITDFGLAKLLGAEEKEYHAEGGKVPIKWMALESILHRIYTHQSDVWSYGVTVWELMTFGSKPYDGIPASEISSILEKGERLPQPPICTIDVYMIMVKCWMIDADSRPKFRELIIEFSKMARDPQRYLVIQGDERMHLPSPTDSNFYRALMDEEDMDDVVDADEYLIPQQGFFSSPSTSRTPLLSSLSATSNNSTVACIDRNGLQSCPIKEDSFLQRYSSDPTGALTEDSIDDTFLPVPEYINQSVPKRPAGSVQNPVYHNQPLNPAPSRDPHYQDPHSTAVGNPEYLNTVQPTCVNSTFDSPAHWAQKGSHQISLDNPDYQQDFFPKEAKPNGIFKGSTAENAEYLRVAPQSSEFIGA
Where a name gives a salt, the structure may show the parent alone.
MEASUREMENT TYPE: IC50 (nM)

a = c1ccc(COc2ccc(Nc3ncnc4cnc(-c5ccc(CN6CCCCC6)o5)cc34)cc2)cc1 [Example 1, hydrochloride]
b = CC(=O)NCCNCc1ccc(-c2cc3c(Nc4ccc(OCc5ccccc5)cc4)ncnc3cn2)o1 [Example 9]
Which has the smaller recorded IC50, a or b ? Your answer should be the label of the entry you select.
b
(b: 95 nM, a: 170 nM)

###

biological target: c-erbB4 (baculovirus expressed, recombinant intracellular domain) (Homo sapiens, UniProt Q15303); construct: recombinant constructs of the intracellular domains of c-erbB-2 and c-erbB4 that are constitutively active; test: Substrate phosphorylation assay, c-erbB4; conditions: 30 minutes, room temperature, ATP and peptide at Km; read-out: Substrate Phosphorylation erbB-4 IC50
Sequence (Q15303 676-1308 limits assumed): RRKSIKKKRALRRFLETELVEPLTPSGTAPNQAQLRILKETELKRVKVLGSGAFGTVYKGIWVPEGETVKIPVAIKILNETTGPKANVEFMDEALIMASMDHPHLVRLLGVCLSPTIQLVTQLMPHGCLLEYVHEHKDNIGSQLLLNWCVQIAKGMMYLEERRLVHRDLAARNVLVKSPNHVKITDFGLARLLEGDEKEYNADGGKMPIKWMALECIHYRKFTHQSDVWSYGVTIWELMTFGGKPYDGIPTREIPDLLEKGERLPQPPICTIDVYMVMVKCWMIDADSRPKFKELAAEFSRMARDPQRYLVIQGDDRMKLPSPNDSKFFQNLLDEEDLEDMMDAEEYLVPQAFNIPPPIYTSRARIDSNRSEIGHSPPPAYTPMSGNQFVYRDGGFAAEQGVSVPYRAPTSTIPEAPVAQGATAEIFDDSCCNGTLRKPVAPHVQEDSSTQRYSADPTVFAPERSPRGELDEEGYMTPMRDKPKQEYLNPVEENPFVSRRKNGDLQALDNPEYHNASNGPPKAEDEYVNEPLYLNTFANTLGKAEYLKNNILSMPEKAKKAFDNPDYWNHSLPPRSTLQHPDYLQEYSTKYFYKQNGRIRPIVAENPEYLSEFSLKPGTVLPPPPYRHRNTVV
pIC50: −log10 of the molar value. Structures can show the parent of a compound that is named as a salt.
MEASUREMENT TYPE: pIC50

CC(=O)NCCNCc1ccc(-c2cc3c(Nc4ccc(OCc5ccccc5)cc4)ncnc3cn2)o1 ... 6.00
CN1CCN(Cc2ccc(-c3cc4c(Nc5ccc(OCc6ccccc6)cc5)ncnc4cn3)o2)CC1 ... 6.12
c1ccc(COc2ccc(Nc3ncnc4cnc(-c5ccc(CN6CCCCC6)o5)cc34)cc2)cc1 [Example 1, hydrochloride] ... 5.85

a = CS(=O)(=O)CCCNCc1ccc(-c2cc3c(Nc4ccc(OCc5ccccc5)cc4)ncnc3cn2)o1
b = CS(=O)(=O)NCCNCc1ccc(-c2cc3c(Nc4ccc(OCc5ccccc5)cc4)ncnc3cn2)o1 [Example 17, hydrochloride]
Dear colleague, could you let me know whether a or b has the lower recorded pIC50? Thanks. Identify your pick by its label.
a

A = NC(=O)[C@@H]1CCCN1Cc1ccc(-c2cc3c(Nc4ccc(OCc5ccccc5)cc4)ncnc3cn2)o1 [Example 7, hydrochloride]
B = CS(=O)(=O)CCNCc1ccc(-c2cc3c(Nc4ccc(OCc5ccccc5)cc4)ncnc3cn2)o1 [Example 3, hydrochloride]
Hi there! Just curious which has the higher pIC50 between A and B . Reply briefly: the label of your chosen item.
A

###

test system: HB4a cell line transformed by over-expression of c-erbB-2; assay: Cell proliferation assay, HB4a erbB-2; assay type: cell-based; conditions: Homo sapiens, 96 h, 4 days, methylene blue staining
Structures can show the parent of a compound that is named as a salt.
Recorded pIC50 values for a group of molecules are listed next.
// field semantics: pIC50 = negative decimal log of concentration (mol/L)

Recorded results for 10 molecules are shown here.
NC(=O)[C@@H]1CCCN1Cc1ccc(-c2cc3c(Nc4ccc(OCc5ccccc5)cc4)ncnc3cn2)o1 [Example 7, hydrochloride] ... 6.39
CN(CC(N)=O)Cc1ccc(-c2cc3c(Nc4ccc(OCc5ccccc5)cc4)ncnc3cn2)o1 ... 7.00
OCc1ccc(-c2cc3c(Nc4ccc(OCc5ccccc5)cc4)ncnc3cn2)o1 [Example 12, hydrochloride] ... 6.36
CS(=O)(=O)CCNCc1ccc(-c2cc3c(Nc4ccc(OCc5ccccc5)cc4)ncnc3cn2)o1 [Example 3, hydrochloride] ... 6.30
CN(CCS(C)(=O)=O)Cc1ccc(-c2cc3c(Nc4ccc(OCc5ccccc5)cc4)ncnc3cn2)o1 ... 6.52
CN1CCN(Cc2ccc(-c3cc4c(Nc5ccc(OCc6ccccc6)cc5)ncnc4cn3)o2)CC1 ... 6.37
CS(=O)(=O)NCCNCc1ccc(-c2cc3c(Nc4ccc(OCc5ccccc5)cc4)ncnc3cn2)o1 [Example 17, hydrochloride] ... 6.60
CN(C)C(=O)[C@@H]1CCCN1Cc1ccc(-c2cc3c(Nc4ccc(OCc5ccccc5)cc4)ncnc3cn2)o1 ... 5.68
CC(=O)NCCNCc1ccc(-c2cc3c(Nc4ccc(OCc5ccccc5)cc4)ncnc3cn2)o1 ... 6.14
c1ccc(COc2ccc(Nc3ncnc4cnc(-c5ccc(CNc6cccnc6)o5)cc34)cc2)cc1 ... 5.25

API: value(readout= pIC50, system= HB4a cell line transformed by over-expression of c-erbB-2, query= C[S+]([O-])CCNCc1ccc(-c2cc3c(Nc4ccc(OCc5ccccc5)cc4)ncnc3cn2)o1 (stereo not drawn) )
6.60

Checklist item: pIC50 tested on HB4a cell line transformed by over-expression of c-erbB-2, entry COC(=O)CNCc1ccc(-c2cc3c(Nc4ccc(OCc5ccccc5)cc4)ncnc3cn2)o1 [Example 4, hydrochloride] , value?
4.54

###

target: EGFr isolated from solubilised A431 cell membranes (Homo sapiens, UniProt P00533); construct: EGFr isolated from solubilised A431 cell membranes; endogenous in cells; host or cells: A431 cells (solubilised membranes); assay: Substrate phosphorylation assay, EGFr; format: biochemical; settings: 30 minutes, room temperature, ATP and peptide at Km
Where a name gives a salt, the structure may show the parent alone.
MEASUREMENT TYPE: IC50 (nM)

Field: example entries. Status: answers known.
CN1CCN(Cc2ccc(-c3cc4c(Nc5ccc(OCc6ccccc6)cc5)ncnc4cn3)o2)CC1 ... 170
C[S+]([O-])CCNCc1ccc(-c2cc3c(Nc4ccc(OCc5ccccc5)cc4)ncnc3cn2)o1 (stereo not shown) ... 140

I = NC(=O)[C@@H]1CCCN1Cc1ccc(-c2cc3c(Nc4ccc(OCc5ccccc5)cc4)ncnc3cn2)o1 [Example 7, hydrochloride]
II = COC(=O)CNCc1ccc(-c2cc3c(Nc4ccc(OCc5ccccc5)cc4)ncnc3cn2)o1 [Example 4, hydrochloride]
Smaller IC50 value? Options are I and II Select an item and report its label.
I
(I: 79 nM, II: 130 nM)

###

test system: N87 gastric tumour cell line; assay: Cell proliferation assay, N87; format: cell-based; conditions: Homo sapiens, 96 h; 4 days, methylene blue staining
pIC50: −log10 of the molar value. Counter-ions that a name gives are not always drawn.
MEASUREMENT TYPE: pIC50

CN(CC(N)=O)Cc1ccc(-c2cc3c(Nc4ccc(OCc5ccccc5)cc4)ncnc3cn2)o1 ... 7.22

1 = CN(C)C(=O)[C@@H]1CCCN1Cc1ccc(-c2cc3c(Nc4ccc(OCc5ccccc5)cc4)ncnc3cn2)o1
2 = CS(=O)(=O)NCCNCc1ccc(-c2cc3c(Nc4ccc(OCc5ccccc5)cc4)ncnc3cn2)o1 [Example 17, hydrochloride]
Which numeric pIC50 is bigger, that of 1 or that of 2 ? Kindly give the label for the entry you pick.
2

###

biological target: c-erbB4 (baculovirus expressed, recombinant intracellular domain) (Homo sapiens); construct: recombinant constructs of the intracellular domains of c-erbB-2 and c-erbB4 that are constitutively active; test: Substrate phosphorylation assay, c-erbB4; details: 30 minutes, room temperature, ATP and peptide at Km; read-out: Substrate Phosphorylation erbB-4 IC50
pIC50: −log10 of the molar value. Where a name gives a salt, the structure may show the parent alone.
MEASUREMENT TYPE: pIC50

Examples with their reported pIC50 follow.
COC(=O)CNCc1ccc(-c2cc3c(Nc4ccc(OCc5ccccc5)cc4)ncnc3cn2)o1 [Example 4, hydrochloride] ... 6.28
CN(CC(N)=O)Cc1ccc(-c2cc3c(Nc4ccc(OCc5ccccc5)cc4)ncnc3cn2)o1 ... 6.80
c1ccc(COc2ccc(Nc3ncnc4cnc(-c5ccc(CNc6cccnc6)o5)cc34)cc2)cc1 ... 5.80
OCc1ccc(-c2cc3c(Nc4ccc(OCc5ccccc5)cc4)ncnc3cn2)o1 [Example 12, hydrochloride] ... 6.31
CN(C)Cc1ccc(-c2cc3c(Nc4ccc(OCc5ccccc5)cc4)ncnc3cn2)o1 [Example 6, hydrochloride] ... 5.62
NC(=O)[C@H]1CCCN1Cc1ccc(-c2cc3c(Nc4ccc(OCc5ccccc5)cc4)ncnc3cn2)o1 [Example 13, hydrochloride] ... 6.32

a = CN(CCS(C)(=O)=O)Cc1ccc(-c2cc3c(Nc4ccc(OCc5ccccc5)cc4)ncnc3cn2)o1
b = CN(C)C(=O)[C@@H]1CCCN1Cc1ccc(-c2cc3c(Nc4ccc(OCc5ccccc5)cc4)ncnc3cn2)o1
c = O=C(O)CNCc1ccc(-c2cc3c(Nc4ccc(OCc5ccccc5)cc4)ncnc3cn2)o1 [Example 11, hydrochloride]
Arrange items by their pIC50 values in increasing order. In plain terms: list the labels in the order you were asked to.
b, a, c
(b: 5.55, a: 5.82, c: 6.35)

###

system: HB4a cell line transformed by over-expression of c-erbB-2; test: Cell proliferation assay, HB4a erbB-2; type: cell-based; conditions: Homo sapiens, 96 h, 4 days, methylene blue staining
Where a name gives a salt, the structure may show the parent alone.
MEASUREMENT TYPE: IC50 (nM)
Give just the numeric value; nM need not be written.

O=C(O)CNCc1ccc(-c2cc3c(Nc4ccc(OCc5ccccc5)cc4)ncnc3cn2)o1 [Example 11, hydrochloride] ... 50000
NC(=O)[C@H]1CCCN1Cc1ccc(-c2cc3c(Nc4ccc(OCc5ccccc5)cc4)ncnc3cn2)o1 [Example 13, hydrochloride] ... 170

Let's switch to this compound now.
Give HB4a cell line transformed by over-expression of c-erbB-2 IC50 for CN(C)Cc1ccc(-c2cc3c(Nc4ccc(OCc5ccccc5)cc4)ncnc3cn2)o1 [Example 6, hydrochloride]
1500
